Data origin: paper PMC3353862

- Tested on: S. pneumoniae
- experiment.summary: Broth microdilution MIC testing
- Assay type: cell-based, Streptococcus pneumoniae
- conditions.used: S. pneumoniae
Field 'label' (enum: Y / N). Set to Y when MIC S. pneumo is strictly under 8 µg/mL; else N.

Is 8 µg/mL strictly greater than the compound's reported MIC S. pneumo? compound: CCN(CC)Cc1cc(CN2CCc3nc(-c4ccccn4)[nH]c(=O)c3C2)ccc1OC
N

Quick check: MIC S. pneumo of Cc1cc2c(cc1CN1CCc3nc(-c4ccccn4)[nH]c(=O)c3C1)OCO2 under 8 µg/mL?
N

Report whether reported MIC S. pneumo is lower than 8 µg/mL (strictly) for CCOc1cc2c(cc1CN1CCc3nc(-c4ccccn4)[nH]c(=O)c3C1)OCO2
N

Strictly below 8 µg/mL: is that where MIC S. pneumo of CC(C)(C)Oc1ccc(CN2CCc3nc(-c4ccccn4)[nH]c(=O)c3C2)cc1 sits?
Y

Below 8 µg/mL on MIC S. pneumo? Entry CCOCc1cc(CN2CCc3nc(-c4ccccn4)[nH]c(=O)c3C2)ccc1OC
N

Confirm or reject: MIC S. pneumo of CCOc1ccc(CN2CCc3nc(-c4ccccn4)[nH]c(=O)c3C2)cc1Cn1ccnc1 lies strictly below 8 µg/mL
N

Item O=c1[nH]c(-c2ccccn2)nc2c1CN(Cc1ccccc1Cl)CC2 : MIC S. pneumo beneath 8 µg/mL, strictly?
Y

Lab note: confirm whether the reported MIC S. pneumo for this compound is below 8 µg/mL, equality not counting. compound: CC(=O)Oc1ccc(CN2CCc3nc(-c4ccccn4)[nH]c(=O)c3C2)cc1
N
